Test system: Staphylococcus aureus
Assay name: Antimicrobial activity against Staphylococcus aureus NCTC 4163 incubated for 18 hrs by twofold microdilution method
Assay type: functional
Observation type: MIC (µg/mL)
Give bare numbers, in µg/mL.

{"columns": ["Chemical structure", "Observation type", "Reported"],
 "data": [
  ["CC[C@@H](C(=O)[C@@H](C)[C@@H](O)[C@H](C)[C@@H]1O[C@@H]([C@@H](CC)C(=O)OCCCCCC[P+](c2ccc(C)cc2)(c2ccc(C)cc2)c2ccc(C)cc2)CC[C@@H]1C)[C@H]1O[C@]2(C=C[C@@H](O)[C@]3(CC[C@@](C)([C@H]4CC[C@](O)(CC)[C@H](C)O4)O3)O2)[C@H](C)C[C@@H]1C.[Br-]", "MIC", 8],
  ["CC[C@@H](C(=O)[C@@H](C)[C@@H](O)[C@H](C)[C@@H]1O[C@@H]([C@@H](CC)C(=O)OCCCC[P+](c2ccccc2)(c2ccccc2)c2ccc(N(C)C)cc2)CC[C@@H]1C)[C@H]1O[C@]2(C=C[C@@H](O)[C@]3(CC[C@@](C)([C@H]4CC[C@](O)(CC)[C@H](C)O4)O3)O2)[C@H](C)C[C@@H]1C.[Br-]", "MIC", 2]
]}

Turning to the following compound.
(Q) Given the compound CC[C@@H](C(=O)[C@@H](C)[C@@H](O)[C@H](C)[C@@H]1O[C@@H]([C@@H](CC)C(=O)OCCCC[P+](c2ccc(OC)cc2)(c2ccc(OC)cc2)c2ccc(OC)cc2)CC[C@@H]1C)[C@H]1O[C@]2(C=C[C@@H](O)[C@]3(CC[C@@](C)([C@H]4CC[C@](O)(CC)[C@H](C)O4)O3)O2)[C@H](C)C[C@@H]1C.[Br-] , what is its reported MIC?
(A) 4

----------
Would you kindly list selectivity ratio for each of these molecules?
Assay name: Selectivity index, ratio of IC50 for cytotoxicity against chinese hamster V79 cells to IC50 for cytotoxicity against human PC-3 cells
Type: toxicity, cell-based
Particulars: V79 cells versus PC-3 cells, read-out: Ratio IC50
Give bare numbers.

{"columns": ["Chemical structure", "selectivity ratio"],
 "data": [
  ["CCCC[P+](CCCC)(CCCC)CCCCOC(=O)[C@H](CC)[C@H]1CC[C@H](C)[C@H]([C@@H](C)[C@H](O)[C@H](C)C(=O)[C@H](CC)[C@H]2O[C@]3(C=C[C@@H](O)[C@]4(CC[C@@](C)([C@H]5CC[C@](O)(CC)[C@H](C)O5)O4)O3)[C@H](C)C[C@@H]2C)O1.[Br-]", 0.4]
]}

Note: attention shifts to another entry.
(Q) # lookup: selectivity ratio of CC[C@@H](C(=O)[C@@H](C)[C@@H](O)[C@H](C)[C@@H]1O[C@@H]([C@@H](CC)C(=O)OCCCC[P+](c2ccccc2)(c2ccccc2)c2ccc(N(C)C)cc2)CC[C@@H]1C)[C@H]1O[C@]2(C=C[C@@H](O)[C@]3(CC[C@@](C)([C@H]4CC[C@](O)(CC)[C@H](C)O4)O3)O2)[C@H](C)C[C@@H]1C.[Br-]
(A) 0.1

----------
Assay name: Selectivity index, ratio of IC50 for cytotoxicity against chinese hamster V79 cells to IC50 for cytotoxicity against human A549 cells
Format: toxicity, cell-based
Particulars: V79 cells versus A549 cells, read-out: Ratio IC50
Observation type: selectivity ratio
Answers are plain numbers.

Below are worked cases with known answers.
{"columns": ["Chemical structure", "selectivity ratio"],
 "data": [
  ["CC[C@@H](C(=O)[C@@H](C)[C@@H](O)[C@H](C)[C@@H]1O[C@@H]([C@@H](CC)C(=O)OCCCC[P+](c2ccccc2OC)(c2ccccc2OC)c2ccccc2OC)CC[C@@H]1C)[C@H]1O[C@]2(C=C[C@@H](O)[C@]3(CC[C@@](C)([C@H]4CC[C@](O)(CC)[C@H](C)O4)O3)O2)[C@H](C)C[C@@H]1C.[Br-]", 0.9],
  ["CC[C@@H](C(=O)[C@@H](C)[C@@H](O)[C@H](C)[C@@H]1O[C@@H]([C@@H](CC)C(=O)OCc2ccccc2)CC[C@@H]1C)[C@H]1O[C@]2(C=C[C@@H](O)[C@]3(CC[C@@](C)([C@H]4CC[C@](O)(CC)[C@H](C)O4)O3)O2)[C@H](C)C[C@@H]1C", 0.8],
  ["CC[C@@H](C(=O)[C@@H](C)[C@@H](O)[C@H](C)[C@@H]1O[C@@H]([C@@H](CC)C(=O)OCCCC[P+](c2ccccc2)(c2ccccc2)c2ccc(N(C)C)cc2)CC[C@@H]1C)[C@H]1O[C@]2(C=C[C@@H](O)[C@]3(CC[C@@](C)([C@H]4CC[C@](O)(CC)[C@H](C)O4)O3)O2)[C@H](C)C[C@@H]1C.[Br-]", 0.5]
]}

Next item in the queue.
(Q) Request the reported selectivity ratio associated with CCCC[P+](CCCC)(CCCC)CCCCCCOC(=O)[C@H](CC)[C@H]1CC[C@H](C)[C@H]([C@@H](C)[C@H](O)[C@H](C)C(=O)[C@H](CC)[C@H]2O[C@]3(C=C[C@@H](O)[C@]4(CC[C@@](C)([C@H]5CC[C@](O)(CC)[C@H](C)O5)O4)O3)[C@H](C)C[C@@H]2C)O1.[Br-]
(A) 0.6

Just for reference, ChEMBL document CHEMBL6120978 is where these values come from.
